Ref: patent US20250034144A1

Would you kindly list Angle of repose for each of these compounds?
ASSAY_NAME: Fluidity related test (densities, Carr index, Hausner ratio, angle of repose)
Type: physicochemical
Quick note: give the figure in °, leave out the unit.

Request: Quick one: give measured Angle of repose for C[C@@H](O)[C@H]1C(=O)N2C(C(=O)[O-])=C(S[C@@H]3CN[C@H](C(=O)Nc4cccc(C(=O)O)c4)C3)[C@H](C)[C@H]12.[Na+] [Amorphous, ertapenem sodium]
Response: 47

Request: Quick one: give measured Angle of repose for C[C@@H](O)[C@H]1C(=O)N2C(C(=O)[O-])=C(S[C@@H]3CN[C@H](C(=O)Nc4cccc(C(=O)O)c4)C3)[C@H](C)[C@H]12.[Na+] [Crystal form C, ertapenem sodium]
Response: 43

Request: Quick one: give measured Angle of repose for C[C@@H](O)[C@H]1C(=O)N2C(C(=O)[O-])=C(S[C@@H]3CN[C@H](C(=O)Nc4cccc(C(=O)O)c4)C3)[C@H](C)[C@H]12.[Na+] [Crystal form A, ertapenem sodium]
Response: 43

Request: Quick one: give measured Angle of repose for C[C@@H](O)[C@H]1C(=O)N2C(C(=O)[O-])=C(S[C@@H]3CN[C@H](C(=O)Nc4cccc(C(=O)O)c4)C3)[C@H](C)[C@H]12.[Na+] [Crystal form E, ertapenem sodium]
Response: 46

Request: Quick one: give measured Angle of repose for C[C@@H](O)[C@H]1C(=O)N2C(C(=O)[O-])=C(S[C@@H]3CN[C@H](C(=O)Nc4cccc(C(=O)O)c4)C3)[C@H](C)[C@H]12.[Na+] [Crystal form B, ertapenem sodium]
Response: 41

Request: Quick one: give measured Angle of repose for C[C@@H](O)[C@H]1C(=O)N2C(C(=O)[O-])=C(S[C@@H]3CN[C@H](C(=O)Nc4cccc(C(=O)O)c4)C3)[C@H](C)[C@H]12.[Na+] [Crystal form D, ertapenem sodium]
Response: 47

Request: Quick one: give measured Angle of repose for C[C@@H](O)[C@H]1C(=O)N2C(C(=O)[O-])=C(S[C@@H]3CN[C@H](C(=O)Nc4cccc(C(=O)O)c4)C3)[C@H](C)[C@H]12.[Na+] [Crystal form F, ertapenem sodium]
Response: 23
